Ref: paper PMC7280029

Give DSS (drug-sensitivity score) for every item shown.
target_system: CSR3 (class 1 RNase III of Sweet potato chlorotic stunt virus) (Sweet potato chlorotic stunt virus)
assay_method_text: biochemical
Assay type: biochemical
settings: dose-response 1.25 nM to 50 µM, Breeze software
Answers are plain numbers.

The cases that follow already have their DSS (drug-sensitivity score) on record.
compound: O=S(=O)(O)c1cccc2cc(O)ccc12
quantity_measured: DSS (drug-sensitivity score)
numeric_result: 18.3
--
compound: CC(C)(C)C1CCc2c(sc(NC(=O)C3CC=CCC3C(=O)O)c2C(N)=O)C1 (centres unmarked)
quantity_measured: DSS (drug-sensitivity score)
numeric_result: 0
--
compound: Cc1ccc(C)c(C(=O)CSc2nnc[nH]2)c1
quantity_measured: DSS (drug-sensitivity score)
numeric_result: 19.2
--
compound: c1cnc2[nH]c(Nc3ccc(Nc4nc5cccnc5[nH]4)cc3)nc2c1
quantity_measured: DSS (drug-sensitivity score)
numeric_result: 12.9
--
compound: COc1cc(C=C2C(=O)NC(=S)NC2=O)ccc1OCc1ccccc1[N+](=O)[O-]
quantity_measured: DSS (drug-sensitivity score)
numeric_result: 11.2

Please state DSS (drug-sensitivity score) for every compound in the list that follows.
1. CN1C(=O)C(=CNc2ccc(F)cc2)C(=O)N(C)C1=O
2. O=C(O)c1ccc(C2Nc3c(Br)cccc3C3C=CCC32)cc1 (centres unmarked)
3. CN1CCc2cccc3c2[C@H]1Cc1ccc(O)c(O)c1-3

[0, 13.8, 12.7]

I have 3 compounds here; please give me DSS (drug-sensitivity score) for each one.
1. CCn1c(S)nnc1CCNC(=O)c1cccs1
2. O=C1c2c(O)ccc(O)c2C(=O)c2c(NCCNCCO)ccc(NCCNCCO)c21
3. CCn1c(C)nc2cc(S(N)(=O)=O)ccc21

1: 11.7; 2: 14.9; 3: 17.6

###

What pIC50 was measured for each of the following?
target_system: CSR3 (class 1 RNase III of Sweet potato chlorotic stunt virus) (Sweet potato chlorotic stunt virus, UniProt Q8JJW8)
Sequence (Q8JJW8 entry or part of it): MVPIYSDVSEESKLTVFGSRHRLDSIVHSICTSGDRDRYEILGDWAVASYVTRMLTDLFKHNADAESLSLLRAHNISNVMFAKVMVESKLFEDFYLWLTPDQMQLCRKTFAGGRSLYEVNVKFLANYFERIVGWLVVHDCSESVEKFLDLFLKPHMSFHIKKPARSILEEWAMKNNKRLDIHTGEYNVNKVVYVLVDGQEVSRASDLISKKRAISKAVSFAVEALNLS
Answers are plain numbers, as −log10 of the molar value.

# count of solved cases: 3
cpd_smiles: Cc1ccc(C)c(C(=O)CSc2nnc[nH]2)c1
pIC50: 6.19

cpd_smiles: O=S(=O)(O)c1cccc2cc(O)ccc12
pIC50: 6.16

cpd_smiles: CN1CCc2cccc3c2[C@H]1Cc1ccc(O)c(O)c1-3
pIC50: 5.54

With those in mind, consider the next compound.
Item "O=C1c2c(O)ccc(O)c2C(=O)c2c(NCCNCCO)ccc(NCCNCCO)c21" has what recorded pIC50? 5.74

###

target_system: CSR3 (class 1 RNase III of Sweet potato chlorotic stunt virus) (Sweet potato chlorotic stunt virus, UniProt Q8JJW8)
quantity_measured: IC50 (µM)
Give bare numbers, in µM.

molecule: COc1cc(C=C2C(=O)NC(=S)NC2=O)ccc1OCc1ccccc1[N+](=O)[O-]
unit_annotation: µM
numeric_result: 3.85
--
molecule: Cc1ccc([C@@H]2Nc3ccc(C(=O)O)cc3[C@@H]3C=CC[C@@H]32)cc1
unit_annotation: µM
numeric_result: 1.27
--
molecule: CCn1c(S)nnc1CCNC(=O)c1cccs1
unit_annotation: µM
numeric_result: 3.07

# batch size: 3; output IC50 per entry
1. CCn1c(C)nc2cc(S(N)(=O)=O)ccc21
2. c1cnc2[nH]c(Nc3ccc(Nc4nc5cccnc5[nH]4)cc3)nc2c1
3. O=C(O)c1ccc(C2Nc3c(Br)cccc3C3C=CCC32)cc1 (stereo not drawn)

1. 0.782
2. 2.84
3. 1.86
